# EXPERIMENTAL TARGET: LRRK2 G2019S (Homo sapiens, UniProt Q5S007, G2019S)
# Sequence (Q5S007 whole entry G2019S): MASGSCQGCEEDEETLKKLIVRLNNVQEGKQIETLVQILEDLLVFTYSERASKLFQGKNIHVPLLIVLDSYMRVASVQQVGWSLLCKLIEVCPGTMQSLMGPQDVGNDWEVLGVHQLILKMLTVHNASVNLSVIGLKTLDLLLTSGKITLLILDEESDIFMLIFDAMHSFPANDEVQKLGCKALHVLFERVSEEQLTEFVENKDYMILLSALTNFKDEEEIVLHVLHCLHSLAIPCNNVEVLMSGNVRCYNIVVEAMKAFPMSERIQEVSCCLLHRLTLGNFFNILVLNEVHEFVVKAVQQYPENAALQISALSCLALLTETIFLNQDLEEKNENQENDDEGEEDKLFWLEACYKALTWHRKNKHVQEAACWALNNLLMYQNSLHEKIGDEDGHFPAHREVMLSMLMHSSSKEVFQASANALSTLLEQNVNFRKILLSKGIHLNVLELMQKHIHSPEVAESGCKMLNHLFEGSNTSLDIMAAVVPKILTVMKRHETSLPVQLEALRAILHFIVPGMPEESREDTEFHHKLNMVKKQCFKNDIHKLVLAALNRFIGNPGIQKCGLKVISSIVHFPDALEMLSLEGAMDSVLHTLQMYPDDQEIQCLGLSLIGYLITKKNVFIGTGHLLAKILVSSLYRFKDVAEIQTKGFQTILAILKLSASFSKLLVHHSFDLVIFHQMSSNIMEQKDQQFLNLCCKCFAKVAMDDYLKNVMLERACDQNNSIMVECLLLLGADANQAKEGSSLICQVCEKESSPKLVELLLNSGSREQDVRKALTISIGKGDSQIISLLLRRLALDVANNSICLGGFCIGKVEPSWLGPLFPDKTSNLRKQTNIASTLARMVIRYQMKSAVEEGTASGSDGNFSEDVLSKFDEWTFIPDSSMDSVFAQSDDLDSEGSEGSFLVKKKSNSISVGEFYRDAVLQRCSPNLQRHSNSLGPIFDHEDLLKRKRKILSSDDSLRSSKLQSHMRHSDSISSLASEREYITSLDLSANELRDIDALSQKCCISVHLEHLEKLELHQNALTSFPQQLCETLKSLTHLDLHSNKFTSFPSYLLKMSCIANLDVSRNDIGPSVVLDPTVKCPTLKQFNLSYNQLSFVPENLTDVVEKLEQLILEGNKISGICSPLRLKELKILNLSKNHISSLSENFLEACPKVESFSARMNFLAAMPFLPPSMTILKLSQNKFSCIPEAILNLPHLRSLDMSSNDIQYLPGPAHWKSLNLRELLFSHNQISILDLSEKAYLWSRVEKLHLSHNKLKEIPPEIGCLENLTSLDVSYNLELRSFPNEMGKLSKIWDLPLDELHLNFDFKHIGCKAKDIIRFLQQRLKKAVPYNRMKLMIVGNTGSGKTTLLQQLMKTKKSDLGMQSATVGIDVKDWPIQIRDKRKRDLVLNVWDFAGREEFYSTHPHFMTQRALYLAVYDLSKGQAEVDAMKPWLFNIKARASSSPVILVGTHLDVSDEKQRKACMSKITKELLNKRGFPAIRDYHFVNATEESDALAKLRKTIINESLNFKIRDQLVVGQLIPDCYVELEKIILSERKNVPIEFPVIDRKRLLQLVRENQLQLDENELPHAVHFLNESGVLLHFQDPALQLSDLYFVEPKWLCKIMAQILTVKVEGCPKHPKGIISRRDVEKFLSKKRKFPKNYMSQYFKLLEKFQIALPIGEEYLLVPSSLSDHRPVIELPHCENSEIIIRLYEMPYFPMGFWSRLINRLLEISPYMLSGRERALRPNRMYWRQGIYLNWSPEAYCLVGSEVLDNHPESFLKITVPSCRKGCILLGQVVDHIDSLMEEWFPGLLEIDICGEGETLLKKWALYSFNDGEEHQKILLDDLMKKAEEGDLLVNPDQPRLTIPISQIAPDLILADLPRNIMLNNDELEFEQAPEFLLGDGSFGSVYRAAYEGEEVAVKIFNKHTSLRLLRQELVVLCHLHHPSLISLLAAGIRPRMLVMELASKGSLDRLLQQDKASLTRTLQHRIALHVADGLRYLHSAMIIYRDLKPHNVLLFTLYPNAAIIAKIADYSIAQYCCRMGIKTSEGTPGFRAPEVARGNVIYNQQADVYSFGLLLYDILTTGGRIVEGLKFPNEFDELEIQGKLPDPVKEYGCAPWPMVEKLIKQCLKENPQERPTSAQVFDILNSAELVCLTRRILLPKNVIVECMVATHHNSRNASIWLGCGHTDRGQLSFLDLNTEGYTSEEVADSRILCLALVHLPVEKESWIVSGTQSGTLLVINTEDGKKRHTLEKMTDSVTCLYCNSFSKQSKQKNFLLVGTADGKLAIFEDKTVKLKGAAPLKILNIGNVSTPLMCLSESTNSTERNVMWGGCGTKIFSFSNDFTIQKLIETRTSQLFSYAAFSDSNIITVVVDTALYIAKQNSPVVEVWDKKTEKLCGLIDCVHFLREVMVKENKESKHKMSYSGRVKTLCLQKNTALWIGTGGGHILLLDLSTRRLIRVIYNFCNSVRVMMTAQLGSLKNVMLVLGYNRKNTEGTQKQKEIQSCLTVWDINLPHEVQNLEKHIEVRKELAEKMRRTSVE
# PROTOCOL DETAILS: LRRK2 Kinase Activity Assay (LanthaScreen TR-FRET), G2019S
# EXPERIMENTAL CONTEXT: recombinant G2019S-LRRK2, 25 μM ATP, 400 nM LRRKtide, 60 min; class symbols
pIC50: −log10 of the molar value.
Consider the following compounds; for each one, report its pIC50.

Prompt: Given the compound N#Cc1ccc2c(c1)CCCC2Nc1ccc2[nH]nc(C(F)(F)F)c2c1 (single isomer, unassigned) [Example 153, enantiomer 2] , what is its reported pIC50?
Completion: 5.00 to 6.00

Prompt: Given the compound N#Cc1ccc2c(c1)CCCC[C@@H]2Nc1ccc2[nH]nc(-c3cnco3)c2c1 (single isomer, unassigned) [Example 104, enantiomer 1] , what is its reported pIC50?
Completion: > 7.00

Prompt: Given the compound N#Cc1ccc2c(c1)CCC[C@@H]2Nc1ccc2[nH]nc(-c3ccn[nH]3)c2c1 (single isomer, unassigned) [Example 157, enantiomer 1] , what is its reported pIC50?
Completion: 6.00 to 7.00

Prompt: Given the compound C[C@H]1C[C@@H](Nc2ccc3[nH]nc(-c4cnco4)c3c2)c2ccc(C#N)cc21 (single isomer, unassigned) [Example 169, enantiomer 2] , what is its reported pIC50?
Completion: > 7.00

Prompt: Given the compound N#Cc1ccc2c(c1)CCC[C@@H]2Nc1ccc2[nH]nc(-c3ccc4c(c3)NC(=O)C4)c2c1 (single isomer, unassigned) [Example 82] , what is its reported pIC50?
Completion: > 7.00

Prompt: Given the compound N#Cc1ccc2c(c1)CCC[C@@H]2Nc1ccc2[nH]nc(C3CCCCC3)c2c1 (single isomer, unassigned) [Example 45] , what is its reported pIC50?
Completion: 5.00 to 6.00

Prompt: Given the compound N#Cc1ccc2c(c1)CC[C@@H]2Oc1cc2c(-c3cnco3)n[nH]c2cn1 (single isomer, unassigned) [Example 20, enantiomer 1] , what is its reported pIC50?
Completion: > 7.00

Prompt: Given the compound CC1(C)CC[C@H](Nc2ccc3[nH]nc(-c4cnco4)c3c2)c2ccc(C#N)cc21 (single isomer, unassigned) [Example 115, enantiomer 1] , what is its reported pIC50?
Completion: > 7.00

Prompt: Given the compound N#Cc1ccc2c(c1)CC[C@@H]2Oc1ccc2[nH]nc(C3CC3)c2c1 (single isomer, unassigned) [Example 124, enantiomer 1] , what is its reported pIC50?
Completion: > 7.00

Prompt: Given the compound N#Cc1ccc2c(c1)CC[C@@H]2Nc1ccc2[nH]nc(-c3cnoc3)c2c1 (single isomer, unassigned) [Example 8, enantiomer 1] , what is its reported pIC50?
Completion: > 7.00

Prompt: Given the compound COc1ccc(-c2n[nH]c3ccc(N[C@H]4CCCc5cc(C#N)ccc54)cc23)cc1 (single isomer, unassigned) [Example 92] , what is its reported pIC50?
Completion: > 7.00

Prompt: Given the compound N#Cc1ccc2c(c1)C(F)(F)C[C@@H]2Nc1ccc2[nH]nc(-c3cnco3)c2c1 (single isomer, unassigned) [Example 138, enantiomer 2] , what is its reported pIC50?
Completion: > 7.00

---

# EXPERIMENTAL TARGET: LRRK2 WT (Homo sapiens, UniProt Q5S007)
# Construct: purchased Life Technologies PR8604B
# Sequence (Q5S007 whole entry): as the sequence (Q5S007 whole entry G2019S) above, with S2019G counted along it
# PROTOCOL DETAILS: LRRK2 Kinase Activity Assay (LanthaScreen TR-FRET), wild type
# Assay type: biochemical
# EXPERIMENTAL CONTEXT: recombinant wild type LRRK2, 25 μM ATP, 400 nM LRRKtide, 60 min; class symbols
pIC50: −log10 of the molar value.
Consider the following compounds; for each one, report its pIC50.

Prompt: Given the compound COc1cc(-c2n[nH]c3ccc(N[C@H]4CCc5cc(C#N)ccc54)cc23)ccn1 (single isomer, unassigned) [Example 40, enantiomer 1] , what is its reported pIC50?
Completion: 6.00 to 7.00

Prompt: Given the compound N#Cc1ccc2c(c1)CCC[C@@H]2Nc1ccc2[nH]nc(-c3ccc(C(=O)N4CCOCC4)cc3)c2c1 (single isomer, unassigned) , what is its reported pIC50?
Completion: > 7.00

Prompt: Given the compound N#Cc1ccc2c(c1)CCCC[C@@H]2Nc1ccc2[nH]nc(-c3cnco3)c2c1 (single isomer, unassigned) [Example 104, enantiomer 1] , what is its reported pIC50?
Completion: > 7.00

Prompt: Given the compound Cc1cc(-c2n[nH]c3ccc(N[C@H]4CCCc5cc(C#N)cnc54)cc23)sn1 (single isomer, unassigned) [Example 158, enantiomer 2] , what is its reported pIC50?
Completion: > 7.00

---

# EXPERIMENTAL TARGET: LRRK2 WT (Homo sapiens, UniProt Q5S007)
# Construct: purchased Life Technologies PR8604B
# PROTOCOL DETAILS: LRRK2 Kinase Activity Assay (LanthaScreen TR-FRET), wild type
# Type: biochemical
# EXPERIMENTAL CONTEXT: recombinant wild type LRRK2, 25 μM ATP, 400 nM LRRKtide, 60 min; class symbols
pIC50: −log10 of the molar value.
QUANTITY KIND: pIC50

Prompt: Given the compound N#Cc1cnc2c(c1)CCC[C@@H]2Nc1ccc2[nH]nc(-c3cnoc3)c2c1 (single isomer, unassigned) [Example 7, enantiomer 2] , what is its reported pIC50?
Completion: > 7.00

Prompt: Given the compound N#Cc1cc(F)c2c(c1)CC[C@H]2Nc1ccc2[nH]nc(-c3cnco3)c2c1 (single isomer, unassigned) [Example 132, enantiomer 1] , what is its reported pIC50?
Completion: > 7.00

Prompt: Given the compound Cc1c(C#N)cnc2c1CC[C@@H]2Nc1ccc2[nH]nc(-c3cnco3)c2c1 (single isomer, unassigned) [Example 108, enantiomer 1] , what is its reported pIC50?
Completion: 6.00 to 7.00

Prompt: Given the compound COc1c(C#N)ccc2c1CC[C@@H]2Nc1ccc2[nH]nc(-c3cnco3)c2c1 (single isomer, unassigned) [Example 113, enantiomer 1] , what is its reported pIC50?
Completion: > 7.00

Prompt: Given the compound N#Cc1cccc(-c2n[nH]c3ccc(N[C@H]4CCCc5cc(C#N)ccc54)cc23)c1 (single isomer, unassigned) , what is its reported pIC50?
Completion: > 7.00

Prompt: Given the compound C[C@@H]1C[C@@H](Nc2ccc3[nH]nc(-c4cnco4)c3c2)c2ccc(C#N)cc21 (single isomer, unassigned) [Example 168, enantiomer 2] , what is its reported pIC50?
Completion: 6.00 to 7.00

---

# EXPERIMENTAL TARGET: LRRK2 G2019S (Homo sapiens, UniProt Q5S007, G2019S)
# PROTOCOL DETAILS: LRRK2 Kinase Activity Assay (LanthaScreen TR-FRET), G2019S
# EXPERIMENTAL CONTEXT: recombinant G2019S-LRRK2, 25 μM ATP, 400 nM LRRKtide, 60 min; class symbols
pIC50: −log10 of the molar value.
QUANTITY KIND: pIC50

Prompt: Given the molecule CS(=O)(=O)c1ccc(-c2n[nH]c3ccc(N[C@H]4CCCc5cc(C#N)ccc54)cc23)cc1 (single isomer, unassigned) [Example 74] , what is its reported pIC50?
Completion: > 7.00

Prompt: Given the molecule CC(C)(C)OC(=O)n1cccc1-c1n[nH]c2ccc(N[C@H]3CCCc4cc(C#N)ccc43)cc12 (single isomer, unassigned) [Example 80] , what is its reported pIC50?
Completion: 6.00 to 7.00

Prompt: Given the molecule COc1nc2c(cc1C#N)CCC[C@@H]2Oc1ccc2[nH]nc(-c3cnco3)c2c1 (single isomer, unassigned) [179, enantiomer 2] , what is its reported pIC50?
Completion: 6.00 to 7.00

---

# EXPERIMENTAL TARGET: LRRK2 WT (Homo sapiens)
# Construct: purchased Life Technologies PR8604B
# PROTOCOL DETAILS: LRRK2 Kinase Activity Assay (LanthaScreen TR-FRET), wild type
# Assay type: biochemical
# EXPERIMENTAL CONTEXT: recombinant wild type LRRK2, 25 μM ATP, 400 nM LRRKtide, 60 min; class symbols
pIC50: −log10 of the molar value.
QUANTITY KIND: pIC50

Prompt: Given the compound N#Cc1cc2c(nc1Cl)[C@@H](Nc1ccc3[nH]nc(-c4cnco4)c3c1)CCC2 (single isomer, unassigned) [Example 112, enantiomer 2] , what is its reported pIC50?
Completion: > 7.00

Prompt: Given the compound Cc1cc2c(cc1C#N)CC[C@@H]2Nc1ccc2[nH]nc(-c3cnco3)c2c1 (single isomer, unassigned) [Example 28, enantiomer 1] , what is its reported pIC50?
Completion: 6.00 to 7.00

Prompt: Given the compound COc1nc2c(cc1C#N)CCC[C@@H]2Nc1ccc2[nH]nc(-c3cnco3)c2c1 (single isomer, unassigned) [Example 102, enantiomer 2] , what is its reported pIC50?
Completion: 5.00 to 6.00

Prompt: Given the compound N#Cc1nc2c(o1)CCC[C@@H]2Nc1ccc2[nH]nc(-c3cnco3)c2c1 (single isomer, unassigned) [Example 35, enantiomer 2] , what is its reported pIC50?
Completion: 6.00 to 7.00

Prompt: Given the compound COc1cc(-c2n[nH]c3ccc(O[C@H]4CCCc5cc(C#N)cnc54)cc23)ccn1 (single isomer, unassigned) [Example 123, enantiomer 1] , what is its reported pIC50?
Completion: > 7.00

Prompt: Given the compound COc1ccc(-c2n[nH]c3ccc(N[C@H]4CCCc5cc(C#N)ccc54)cc23)cc1OC (single isomer, unassigned) [Example 71] , what is its reported pIC50?
Completion: > 7.00
